Molecular target: T1, Human OX40 expressed on transfected Jurkat or CHO cells (human, UniProt P43489 29-277)
T1 construct: also called human OX40/Jurkat; human OX40/CHO
T1 sequence: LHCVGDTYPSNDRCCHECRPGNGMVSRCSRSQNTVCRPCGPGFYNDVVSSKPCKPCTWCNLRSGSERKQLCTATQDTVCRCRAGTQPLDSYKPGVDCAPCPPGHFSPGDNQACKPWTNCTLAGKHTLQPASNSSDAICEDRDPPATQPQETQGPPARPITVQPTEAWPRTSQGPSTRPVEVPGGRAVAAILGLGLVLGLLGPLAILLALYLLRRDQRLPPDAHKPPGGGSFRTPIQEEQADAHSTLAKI
Assay: flow cytometry on human OX40-expressing CHO cells, Geo MFI
property: pEC50
Keep it numeric: pEC50 is minus log10 of the concentration in mol/L.

binder	measured
2B7 tetravalent anti-OX40 antibody (2B7 VHH with GS linker on CH1 and on CL of human IgG1) (antibody, V domains shown) V domain 1: EVQLVESGGGLVQPGGSLRLSCAASGPLGAPSIAWFRQAPGKGLEFVSGIAWSTGDTYYADSVKGRFTISRDNSKNTLYLQMNSLRAEDTAVYYCAADTSVHYMGRHDIRDYEEYDYWGQGTLVTVSS V domain 2: EVQLVESGGGLVQPGGSLRLSCAASGPLGAPSIAWFRQAPGKGLEFVSGIAWSTGDTYYADSVKGRFTISRDNSKNTLYLQMNSLRAEDTAVYYCAADTSVHYMGRHDIRDYEEYDYWGQGTLVTVSS	8.71
2B7 VHH-Fc bivalent antibody (antibody, human IgG1, V domains shown, also called 2B7-bivalent) VH: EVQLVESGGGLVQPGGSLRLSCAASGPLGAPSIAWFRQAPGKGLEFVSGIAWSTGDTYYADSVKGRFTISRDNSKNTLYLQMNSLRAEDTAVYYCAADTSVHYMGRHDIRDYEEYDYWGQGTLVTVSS	8.51
1B3 VHH-Fc bivalent antibody (antibody, human IgG1, V domains shown, also called 1B3-bivalent) VH: EVQLVESGGGLVQPGGSLRLSCAASGPLGMPSIAWFRQAPGKGLEFVSGIAWSTGDTYYADSVKGRFTISRDNSKNTLYLQMNSLRAEDTAVYYCAADTQVHYMGRHDIRDREEYDYWGQGTLVTVSS	8.57

Please look at the following binder next.
Item 1B3 tetravalent anti-OX40 antibody (1B3 VHH with GS linker on CH1 and on CL of human IgG1) (antibody, V domains shown, Four-chain format; The heavy and light variable regions of human IgG1 are replaced by the VHH) V domain 1: EVQLVESGGGLVQPGGSLRLSCAASGPLGMPSIAWFRQAPGKGLEFVSGIAWSTGDTYYADSVKGRFTISRDNSKNTLYLQMNSLRAEDTAVYYCAADTQVHYMGRHDIRDREEYDYWGQGTLVTVSS V domain 2: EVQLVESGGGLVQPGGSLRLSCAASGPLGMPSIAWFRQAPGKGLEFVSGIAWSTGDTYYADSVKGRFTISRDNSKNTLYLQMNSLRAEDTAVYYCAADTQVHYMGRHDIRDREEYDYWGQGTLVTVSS has what recorded pEC50? 8.70

Where these numbers come from: patent US20240383996A1
